- experimental.system: GRPR (Homo sapiens, UniProt P30550)
- Construct: host or cells: PC-3 human prostate adenocarcinoma cells
- Sequence (P30550 whole entry): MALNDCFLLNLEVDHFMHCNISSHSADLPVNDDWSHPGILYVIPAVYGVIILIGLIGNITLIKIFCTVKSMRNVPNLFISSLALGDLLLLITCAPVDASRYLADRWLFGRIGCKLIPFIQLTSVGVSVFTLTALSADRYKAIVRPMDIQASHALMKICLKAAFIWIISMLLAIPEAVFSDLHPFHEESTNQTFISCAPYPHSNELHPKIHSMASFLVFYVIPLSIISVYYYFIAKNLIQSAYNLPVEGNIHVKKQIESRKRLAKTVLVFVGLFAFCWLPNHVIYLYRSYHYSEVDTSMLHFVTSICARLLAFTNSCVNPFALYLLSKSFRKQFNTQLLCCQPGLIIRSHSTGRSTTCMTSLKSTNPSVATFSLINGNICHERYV
- method.description: In vitro competition binding assay, displacement of [125I-Tyr4]Bombesin from PC-3 cells
- condition.parameters: GRPR-expressing PC-3 cells, 0.01 nM [125I-Tyr4]Bombesin, 1 h at 37 °C, ligand 10 μM to 1 pM, n = 3
readout.label: Ki (nM)
// note: answer is a bare numeric in nM

Challenge: Reported Ki for Ga-DOTA-Pip-D-Phe-Gln-Trp-Ala-Val-Gly-His-Leu-NHOH [Ga-LW02050] : what is it?
Response given: 8.53

Challenge: Note, next up: Ga-DOTA-pABzA-DIG-D-Phe-Gln-Trp-Ala-Val-Gly-His-Leu-NHEt [Ga-SB3, reference compound]
Response given: 1.2
